- protocol: Pharmacokinetic profile of a SOMATULINE/DECAPEPTYL composition in beagle dogs (RIA of blood samples)
- Type: in vivo
- conditionNotes: beagle, dog, in vivo, 0.15 ml
- Source text: Once a particular peptide or peptide salt is found to gel in an in vitro assay, e.g., an assay as described above, an in vivo assay can be used to determine the suitability of that peptide salt for use as a sustained-release carrier peptide of a therapeutic agent or agents in animals or humans. […] The suitability of a particular peptide gel, or a peptide/carrier gel, for therapeutic delivery of the carrier peptide and/or therapeutic agent or agents can thus be determined. […]
attributeMeasured: level at 241.44 h (ng/mL)
Numbers only, in ng/mL.

# molecule `CC(C)C[C@H](NC(=O)[C@@H](Cc1c[nH]c2ccccc12)NC(=O)[C@H](Cc1ccc(O)cc1)NC(=O)[C@H](CO)NC(=O)[C@H](Cc1c[nH]c2ccccc12)NC(=O)[C@H](Cc1c[nH]cn1)NC(=O)[C@@H]1CCC(=O)N1)C(=O)N[C@@H](CCCNC(=N)N)C(=O)N1CCC[C@H]1C(=O)NCC(N)=O` ; its level at 241.44 h = 0.5
